meta.source: patent US10239849B2

# assayed-system: glutathione-S-transferase (GST) tagged LXRbeta LBD (ligand binding domain) (Homo sapiens, UniProt P55055)
# test-details: LanthaScreen TR-FRET Liver X Receptor Coactivator Assay, LXR beta-LBD
# protocol-conditions: potency (Inflection Point) of co-activator recruitment, TR-FRET; read-out: LXR beta IP
experimental-endpoint: EC50 (nM)

Solved entries (count: 3):
compound: CN(C)C(=O)c1ccc(-c2cnc(N3CCN(C(=O)Cc4ccccc4)CC3)c(C#N)c2)cc1Cl [Example 2-7]
unit-label: nM
readout-value: 50

compound: C=Cc1cc(-c2ccc(C(=O)N(C)C)c(Cl)c2)cnc1N1CCN(C(=O)OC(C)(C)C)CC1 [Example 9-2]
unit-label: nM
readout-value: 161

compound: CN(C)C(=O)c1ccc(-c2ccc(N3CC4CCC(C3)N4S(=O)(=O)c3c(Cl)cccc3Cl)c(Cl)c2)cc1Cl [Example 8-16]
unit-label: nM
readout-value: 37

A: CN(C)C(=O)c1ccc(-c2cnc(N3CCN(S(=O)(=O)c4c(F)cccc4F)CC3)c(C#N)c2)cc1Cl [Example 1-17]
B: CCC(C)(C)C(=O)N1CCN(c2ncc(-c3ccc(C(=O)N(C)C)c(Cl)c3)cc2C#N)CC1 [Example 2-5]
Could you point out whether the larger EC50 belongs to A or to B ? Refer to your chosen item by its label in the answer.
B
(B: 109 nM, A: 43 nM)

###

# assayed-system: glutathione-S-transferase (GST) tagged LXRalpha LBD (ligand binding domain) (Homo sapiens)
# Sequence (Q13133 209-447 limits assumed): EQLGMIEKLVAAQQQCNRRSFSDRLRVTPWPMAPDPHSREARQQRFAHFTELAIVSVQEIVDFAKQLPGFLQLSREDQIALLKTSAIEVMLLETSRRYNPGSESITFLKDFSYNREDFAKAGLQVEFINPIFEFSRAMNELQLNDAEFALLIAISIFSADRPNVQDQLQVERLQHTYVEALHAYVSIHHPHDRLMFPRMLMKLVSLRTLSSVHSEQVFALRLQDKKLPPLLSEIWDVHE
# test-details: LanthaScreen TR-FRET Liver X Receptor Coactivator Assay, LXR alpha-LBD
# protocol-conditions: potency (Inflection Point) of co-activator recruitment, TR-FRET; read-out: LXR alpha IP
pEC50: −log10 of the molar value.
experimental-endpoint: pEC50

Solved entries (count: 5):
molecule: CCCC(O)(C(=O)N1CCN(c2ncc(-c3ccc(C(=O)N(C)C)c(Cl)c3)cc2C#N)CC1)C(F)(F)F (stereo not shown)
pEC50: 5.38

molecule: CN(C)C(=O)c1ccc(-c2cnc(N3CCN(C(=O)[C@H](O)C(F)(F)F)CC3)c(C#N)c2)cc1Cl
pEC50: 4.55

molecule: CN(C)C(=O)c1ccc(-c2cnc(N3CCN(C(=O)C4(c5ccccc5F)CCCC4)CC3)c(C#N)c2)cc1Cl
pEC50: 5.37

molecule: CN(C)C(=O)c1c(Cl)cc(-c2cnc(N3CCN(C(=O)[C@](O)(c4ccccc4)C(F)(F)F)CC3)c(C#N)c2)cc1Cl
pEC50: 6.73

molecule: CN(C)C(=O)c1ccc(-c2cnc(N3CCN(S(=O)(=O)c4ccccc4Cl)CC3)c(C#N)c2)cc1Cl
pEC50: 5.47

A: CN(CCCO)C(=O)c1ccc(-c2cnc(N3CCN(C(=O)OC(C)(C)C)CC3)c(C#N)c2)cc1Cl
B: COc1cc(-c2cnc(N3CCN(C(=O)OC(C)(C)C)CC3)c(C#N)c2)ccc1C(=O)N(C)C
Could you point out whether the larger pEC50 belongs to A or to B ? Refer to your chosen item by its label in the answer.
A
(A: 5.16, B: 4.59)

###

# assayed-system: glutathione-S-transferase (GST) tagged LXRbeta LBD (ligand binding domain) (Homo sapiens)
# Construct: purchased Invitrogen pv4658.pps
# Sequence (P55055 222-460 limits assumed): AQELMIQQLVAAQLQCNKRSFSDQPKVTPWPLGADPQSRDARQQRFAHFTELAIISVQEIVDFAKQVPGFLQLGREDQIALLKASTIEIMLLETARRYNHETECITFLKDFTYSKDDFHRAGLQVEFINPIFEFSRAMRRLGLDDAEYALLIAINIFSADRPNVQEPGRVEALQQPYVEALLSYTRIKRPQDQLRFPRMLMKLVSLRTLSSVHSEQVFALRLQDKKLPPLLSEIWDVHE
# test-details: LanthaScreen TR-FRET Liver X Receptor Coactivator Assay, LXR beta-LBD
# Format: biochemical
# protocol-conditions: efficacy in relation to reference dual agonist T1317; read-out: LXR beta activity at max dose (%) (Emax)
experimental-endpoint: Emax (%)

sample-smiles: CN(C)C(=O)c1ccc(-c2cnc(N3CCN(C(=O)C(C)(C)c4ccccc4)CC3)c(C#N)c2)cc1Cl
assayed-system: glutathione-S-transferase (GST) tagged LXRbeta LBD (ligand binding domain) (Homo sapiens)
Emax / %: 99
--
sample-smiles: CC(C)(C)OC(=O)N1CCN(c2ncc(-c3ccc(C(=O)N4CCCC4)c(Cl)c3)cc2C#N)CC1
assayed-system: glutathione-S-transferase (GST) tagged LXRbeta LBD (ligand binding domain) (Homo sapiens)
Emax / %: 71
--
sample-smiles: CN(CCCO)C(=O)c1ccc(-c2cnc(N3CCN(C(=O)OC(C)(C)C)CC3)c(C#N)c2)cc1Cl
assayed-system: glutathione-S-transferase (GST) tagged LXRbeta LBD (ligand binding domain) (Homo sapiens)
Emax / %: 70
